- assay-target: T1, mSlo1 channel (BKα subunit of mouse, alone) (mouse, UniProt Q08460 1-1209)
- T1 construct: mSlo1, BK channel α subunit (KCNMA1) of mouse, full-length cDNA, GenBank HQ221747.1; tetrameric Slo1; also called mSlo1 alone channel; source: HEK293, transiently transfected (pcDNA3.1(+)), in excised membrane patches
- T1 sequence (Q08460 whole entry): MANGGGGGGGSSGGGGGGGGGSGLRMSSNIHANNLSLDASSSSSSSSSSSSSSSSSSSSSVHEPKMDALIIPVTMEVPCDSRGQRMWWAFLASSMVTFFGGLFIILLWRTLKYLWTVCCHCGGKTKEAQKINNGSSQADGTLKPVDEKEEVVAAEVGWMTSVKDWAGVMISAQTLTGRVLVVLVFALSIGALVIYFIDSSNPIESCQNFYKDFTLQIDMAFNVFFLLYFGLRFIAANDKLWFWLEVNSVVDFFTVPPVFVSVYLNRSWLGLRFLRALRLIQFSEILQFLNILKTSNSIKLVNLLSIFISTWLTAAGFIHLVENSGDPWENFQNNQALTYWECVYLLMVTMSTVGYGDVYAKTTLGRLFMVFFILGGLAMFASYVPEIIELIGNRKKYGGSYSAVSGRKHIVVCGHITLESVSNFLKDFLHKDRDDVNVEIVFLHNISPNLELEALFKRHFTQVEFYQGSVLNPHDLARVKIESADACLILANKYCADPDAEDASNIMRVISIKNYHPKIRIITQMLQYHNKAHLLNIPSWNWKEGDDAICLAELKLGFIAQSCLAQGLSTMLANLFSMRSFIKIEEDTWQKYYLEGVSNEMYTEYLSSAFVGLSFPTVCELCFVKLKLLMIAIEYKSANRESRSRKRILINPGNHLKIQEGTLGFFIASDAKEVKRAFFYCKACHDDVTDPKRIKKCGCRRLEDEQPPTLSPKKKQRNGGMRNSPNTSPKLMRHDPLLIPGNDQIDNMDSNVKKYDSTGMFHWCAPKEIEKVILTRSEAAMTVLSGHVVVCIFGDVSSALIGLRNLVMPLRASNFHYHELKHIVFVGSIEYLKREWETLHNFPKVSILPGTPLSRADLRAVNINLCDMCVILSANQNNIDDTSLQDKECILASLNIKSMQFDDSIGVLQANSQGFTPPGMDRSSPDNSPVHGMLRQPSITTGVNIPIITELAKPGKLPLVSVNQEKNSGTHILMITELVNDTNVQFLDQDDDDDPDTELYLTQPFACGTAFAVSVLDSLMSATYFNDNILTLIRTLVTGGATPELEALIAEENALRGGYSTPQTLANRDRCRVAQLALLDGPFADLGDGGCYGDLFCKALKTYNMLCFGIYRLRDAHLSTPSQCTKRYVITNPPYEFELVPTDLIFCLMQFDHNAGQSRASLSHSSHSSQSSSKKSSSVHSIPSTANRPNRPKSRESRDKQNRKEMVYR
- assay-overview: patch-clamp electrophysiology (time course of current block); outside-out patches of transfected HEK293 cells perfused with 1 μM ChTX; steps to +100 mV, intracellular 10 μM Ca2+; τon and τoff fitted to a first order bimolecular reaction scheme; KD = [ChTX]/((τoff/τon) − 1)
- measurement-setup: one partner purified
pKd: −log10 of the molar value.

binder: QFTNVSCTTSKECWSVCQRLHNTSRGKCMNKKCRCYS (charybdotoxin (ChTX), scorpion toxin; also called ChTX; source: bought: Sigma-Aldrich (Art. No. C7802)) [Charybdotoxin]
pKd: 6.71
